Listed here are compounds together with their documented MIC.
- Test system: S. aureus ATCC 29213
REPORTED PROPERTY: MIC (µg/mL)

> print(dat)
               structure.smiles.string  qualifier.symbol  measured
1          Cc1ccc(NC(=O)Nc2ccccc2C)cc1                 =       256
2      COc1ccc(NC(=O)Nc2c(C)cccc2C)cc1                 >       256
3        O=C(Nc1ccccc1)Nc1ccc(F)c(F)c1                 =       256
4           Cc1ccc(NC(=O)Nc2ccccc2)cc1                 =       128
5  Cc1cccc(C)c1NC(=O)Nc1ccc(Cl)c(Cl)c1                 =       128
